The reported measurements were obtained from patent US20260242735A1.

Catalogue of Mean % WT Binding readings, one per entry.
- target_or_system: human CD33 T208A (human, UniProt P20138 18-364)
- Sequence (P20138 18-364 T208A limits assumed): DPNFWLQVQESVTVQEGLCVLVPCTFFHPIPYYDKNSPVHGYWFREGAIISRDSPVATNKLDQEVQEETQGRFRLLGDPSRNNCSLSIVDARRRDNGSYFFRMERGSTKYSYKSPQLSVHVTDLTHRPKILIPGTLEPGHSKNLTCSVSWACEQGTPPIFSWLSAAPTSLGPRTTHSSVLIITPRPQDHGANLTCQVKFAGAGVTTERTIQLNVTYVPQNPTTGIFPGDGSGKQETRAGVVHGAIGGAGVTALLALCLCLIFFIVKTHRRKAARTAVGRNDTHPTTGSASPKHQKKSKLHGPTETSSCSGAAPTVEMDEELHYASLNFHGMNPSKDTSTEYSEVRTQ
- procedure_text: alanine scan, flow cytometry, HEK293-T;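 further: antibody binding to each alanine-substituted CD33 mutant expressed transiently in HEK293-T, read as fluorescence minus background, mean of duplicates, relative to wild-type CD33 set as 100%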
measured_metric: Mean % WT Binding (%)

binder: Refmab #2 (antibody, V domains shown, In the alanine scan antibodies were used as IgG or Fab) VH: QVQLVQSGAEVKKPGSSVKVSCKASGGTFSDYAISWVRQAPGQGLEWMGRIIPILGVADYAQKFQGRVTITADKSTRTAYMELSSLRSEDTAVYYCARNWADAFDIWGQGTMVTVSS VL: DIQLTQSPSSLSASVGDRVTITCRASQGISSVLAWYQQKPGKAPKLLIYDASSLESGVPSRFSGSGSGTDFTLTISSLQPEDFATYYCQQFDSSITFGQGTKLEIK
measured_metric: Mean % WT Binding
quantitative_result: 117
//
binder: Refmab #4 (antibody, V domains shown, In the alanine scan antibodies were used as IgG or Fab) VH: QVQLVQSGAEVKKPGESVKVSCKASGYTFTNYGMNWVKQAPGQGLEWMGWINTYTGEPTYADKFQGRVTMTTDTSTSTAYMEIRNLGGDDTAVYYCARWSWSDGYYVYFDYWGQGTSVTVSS VL: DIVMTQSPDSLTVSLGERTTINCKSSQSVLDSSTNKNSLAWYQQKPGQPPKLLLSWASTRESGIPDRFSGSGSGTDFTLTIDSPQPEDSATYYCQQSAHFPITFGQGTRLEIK
measured_metric: Mean % WT Binding
quantitative_result: 108
//
binder: Refmab #1 (antibody, V domains shown, In the alanine scan antibodies were used as IgG or Fab; also called hP67.6) VH: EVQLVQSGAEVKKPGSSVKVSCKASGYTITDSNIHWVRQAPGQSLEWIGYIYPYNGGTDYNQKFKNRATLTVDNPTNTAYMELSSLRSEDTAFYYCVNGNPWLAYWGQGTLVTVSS VL: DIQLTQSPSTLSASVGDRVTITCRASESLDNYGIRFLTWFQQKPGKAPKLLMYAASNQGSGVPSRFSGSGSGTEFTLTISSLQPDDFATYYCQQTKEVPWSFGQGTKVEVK
measured_metric: Mean % WT Binding
quantitative_result: 101
//
binder: Refmab #3 (antibody, V domains shown, In the alanine scan antibodies were used as IgG or Fab) VH: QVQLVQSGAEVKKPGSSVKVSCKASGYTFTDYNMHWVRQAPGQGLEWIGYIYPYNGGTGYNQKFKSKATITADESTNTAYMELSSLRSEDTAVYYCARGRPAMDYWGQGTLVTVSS VL: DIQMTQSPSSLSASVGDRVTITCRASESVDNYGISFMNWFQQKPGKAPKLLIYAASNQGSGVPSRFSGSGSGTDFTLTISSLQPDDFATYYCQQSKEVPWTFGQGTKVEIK
measured_metric: Mean % WT Binding
quantitative_result: 83.6
